The values you see were collected from the supplement of paper PMC10567573.

B1: RHOBTB3 (parent)
chain: DSCCPAGIFQAMCLLICAEMYQVS

- Variants of: B1
- ASSAY NAME: protein stability index of a GFP-peptide fusion (GPS, HEK-293T) (PSI 1-6); higher = more stable;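 note: lentivirally expressed fusions sorted by FACS into six bins by GFP to DsRed ratio, PSI derived from sequencing read proportions per bin multiplied by bin number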
- STATED CONDITIONS: c terminus: a fixed tail appended
In this section we review reported protein stability index values for a set of variants.
Just the number, please.

Reference set, count: 6
# SEQUENCE CHANGE, QUANTITATIVE READOUT
records = [
    ("I16E", 1.7),
    ("S24Y", 3.56),
    ("M12Y", 2.9),
    ("E19V", 3.28),
    ("C3A", 3.18),
    ("C13H", 2.4),
]

Moving on to the next variant.
S2T has a reported protein stability index of 3.94
